EC50 listing for selected molecules.
molecular target: NMDAR2B (Homo sapiens); construct: expressed in transfected cells; host or cells: HEK cells (membrane extract); test: [3H]MK-801 binding, NMDAR2B expressing HEK cell membranes; type: biochemical; settings: 50 μM glutamate, read-out: NMDAR2B B: log EC50 (converted)
Sequence (Q13224 27-1484, species assumed, other chains not shown): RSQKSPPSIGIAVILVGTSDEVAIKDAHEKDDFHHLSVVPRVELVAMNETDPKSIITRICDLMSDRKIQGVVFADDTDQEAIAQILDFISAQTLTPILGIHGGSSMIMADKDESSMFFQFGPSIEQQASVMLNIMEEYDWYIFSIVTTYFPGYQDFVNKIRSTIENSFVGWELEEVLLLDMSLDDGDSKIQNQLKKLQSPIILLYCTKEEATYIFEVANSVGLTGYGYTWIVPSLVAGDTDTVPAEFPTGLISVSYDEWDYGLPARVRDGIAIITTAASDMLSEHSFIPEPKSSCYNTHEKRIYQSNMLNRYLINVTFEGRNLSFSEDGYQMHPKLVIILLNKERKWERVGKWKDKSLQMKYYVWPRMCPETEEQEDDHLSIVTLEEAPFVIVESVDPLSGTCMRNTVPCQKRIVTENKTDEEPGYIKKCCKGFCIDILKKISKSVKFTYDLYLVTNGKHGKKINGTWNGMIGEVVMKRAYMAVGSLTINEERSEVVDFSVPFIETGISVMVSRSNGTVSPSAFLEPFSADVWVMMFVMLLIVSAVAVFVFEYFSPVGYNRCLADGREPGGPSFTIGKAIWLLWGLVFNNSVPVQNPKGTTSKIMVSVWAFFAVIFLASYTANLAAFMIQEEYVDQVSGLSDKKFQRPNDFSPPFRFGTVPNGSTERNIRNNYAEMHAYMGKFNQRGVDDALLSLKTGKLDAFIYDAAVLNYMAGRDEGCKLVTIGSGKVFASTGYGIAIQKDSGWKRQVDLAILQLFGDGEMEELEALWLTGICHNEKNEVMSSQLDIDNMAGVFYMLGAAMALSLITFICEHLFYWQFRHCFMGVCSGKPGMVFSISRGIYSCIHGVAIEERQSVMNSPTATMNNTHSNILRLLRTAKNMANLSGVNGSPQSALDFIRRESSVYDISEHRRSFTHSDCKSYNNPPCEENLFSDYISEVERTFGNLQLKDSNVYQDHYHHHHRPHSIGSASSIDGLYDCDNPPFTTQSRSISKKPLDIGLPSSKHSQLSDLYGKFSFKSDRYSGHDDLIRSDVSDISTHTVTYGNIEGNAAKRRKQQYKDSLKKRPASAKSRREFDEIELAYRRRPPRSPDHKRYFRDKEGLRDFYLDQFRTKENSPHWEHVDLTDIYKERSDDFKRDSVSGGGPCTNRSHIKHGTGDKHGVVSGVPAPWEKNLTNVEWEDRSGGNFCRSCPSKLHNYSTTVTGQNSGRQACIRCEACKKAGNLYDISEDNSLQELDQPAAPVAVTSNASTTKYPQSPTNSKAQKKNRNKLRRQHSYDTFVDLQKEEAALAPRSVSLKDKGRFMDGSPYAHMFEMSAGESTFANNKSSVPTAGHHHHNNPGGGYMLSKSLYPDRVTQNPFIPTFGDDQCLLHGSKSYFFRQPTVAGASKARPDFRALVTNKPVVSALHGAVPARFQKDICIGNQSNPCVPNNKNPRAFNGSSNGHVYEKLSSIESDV

The following molecules have reported results that may help.
molecule | metric | value_reported
C[C@@H](O)[C@H](N)C(=O)N1CCN(Cc2ccccc2)C2(CNC2=O)C1 (single isomer, unassigned) [EL-2] | EC50 | < 1 nM
C[C@@H](O)[C@H](N)C(=O)N1CCN(C(=O)OC(C)(C)C)CC12CNC2=O (stereo partly drawn) | EC50 | < 1 nM

query: Requested field: EC50. Item: CC(C)C(=O)N1CCN(Cc2ccccc2)C2(CCNC2=O)C1 (stereo not drawn)
result: < 1 nM

* * *

test: Oral pharmacokinetics (plasma, brain, CSF); conditions: Sprague Dawley, rat, plasma, po, 10 mg/kg, AUClast, per os, normal saline (compounds marked * in 1% NMP and 99% normal saline)
metric: AUC(0-t) (ng·h/mL)

A: C[C@@H](O)[C@H](N)C(=O)N1CCN(Cc2ccccc2)C2(CNC2=O)C1 (single isomer, unassigned)
B: CN1CCN(C(=O)OC(C)(C)C)CC12CN(CC(N)=O)C2=O (stereo not drawn)
C: C[C@@H](O)[C@H](N)C(=O)N1CCNC2(CNC2=O)C1 (single isomer, unassigned)
query: Order all 3 entries above by recorded AUC(0-t), highest first, lowest last. Give the order by naming the labels one after another as requested.
result: A, C, B

* * *

assay: Oral pharmacokinetics (plasma, brain, CSF); settings: Sprague Dawley, rat, plasma, po, 10 mg/kg, Tmax, per os, normal saline (compounds marked * in 1% NMP and 99% normal saline)
metric: Tmax (min)

Examples with answers:
compound | Tmax, min
CN1CCN(Cc2ccccc2)C2(CNC2=O)C1 (single isomer, unassigned) | 15
O=C1NCCC12CNCCN2 (stereo not shown) | 49.8

P: C[C@@H](O)[C@H](N)C(=O)N1CCN(Cc2ccccc2)C2(CNC2=O)C1 (single isomer, unassigned)
Q: C[C@@H](O)[C@H](N)C(=O)N1CCNC2(CNC2=O)C1 (single isomer, unassigned)
query: Would you let me know which has the greater Tmax value, P or Q ? # reply format: chosen label
result: Q
(Q: 100 min, P: 30 min)

* * *

biological target: NMDAR2A (Homo sapiens, UniProt Q12879); construct: expressed in transfected cells; host or cells: HEK cells (membrane extract); test: [3H]MK-801 binding, NMDAR2A expressing HEK cell membranes; type: biochemical; conditions: 50 μM glutamate, read-out: NMDAR2A A: % maximal [3H]MK-801 binding relative to 1 mM glycine
Sequence (Q12879 23-1464, species assumed, other chains not shown): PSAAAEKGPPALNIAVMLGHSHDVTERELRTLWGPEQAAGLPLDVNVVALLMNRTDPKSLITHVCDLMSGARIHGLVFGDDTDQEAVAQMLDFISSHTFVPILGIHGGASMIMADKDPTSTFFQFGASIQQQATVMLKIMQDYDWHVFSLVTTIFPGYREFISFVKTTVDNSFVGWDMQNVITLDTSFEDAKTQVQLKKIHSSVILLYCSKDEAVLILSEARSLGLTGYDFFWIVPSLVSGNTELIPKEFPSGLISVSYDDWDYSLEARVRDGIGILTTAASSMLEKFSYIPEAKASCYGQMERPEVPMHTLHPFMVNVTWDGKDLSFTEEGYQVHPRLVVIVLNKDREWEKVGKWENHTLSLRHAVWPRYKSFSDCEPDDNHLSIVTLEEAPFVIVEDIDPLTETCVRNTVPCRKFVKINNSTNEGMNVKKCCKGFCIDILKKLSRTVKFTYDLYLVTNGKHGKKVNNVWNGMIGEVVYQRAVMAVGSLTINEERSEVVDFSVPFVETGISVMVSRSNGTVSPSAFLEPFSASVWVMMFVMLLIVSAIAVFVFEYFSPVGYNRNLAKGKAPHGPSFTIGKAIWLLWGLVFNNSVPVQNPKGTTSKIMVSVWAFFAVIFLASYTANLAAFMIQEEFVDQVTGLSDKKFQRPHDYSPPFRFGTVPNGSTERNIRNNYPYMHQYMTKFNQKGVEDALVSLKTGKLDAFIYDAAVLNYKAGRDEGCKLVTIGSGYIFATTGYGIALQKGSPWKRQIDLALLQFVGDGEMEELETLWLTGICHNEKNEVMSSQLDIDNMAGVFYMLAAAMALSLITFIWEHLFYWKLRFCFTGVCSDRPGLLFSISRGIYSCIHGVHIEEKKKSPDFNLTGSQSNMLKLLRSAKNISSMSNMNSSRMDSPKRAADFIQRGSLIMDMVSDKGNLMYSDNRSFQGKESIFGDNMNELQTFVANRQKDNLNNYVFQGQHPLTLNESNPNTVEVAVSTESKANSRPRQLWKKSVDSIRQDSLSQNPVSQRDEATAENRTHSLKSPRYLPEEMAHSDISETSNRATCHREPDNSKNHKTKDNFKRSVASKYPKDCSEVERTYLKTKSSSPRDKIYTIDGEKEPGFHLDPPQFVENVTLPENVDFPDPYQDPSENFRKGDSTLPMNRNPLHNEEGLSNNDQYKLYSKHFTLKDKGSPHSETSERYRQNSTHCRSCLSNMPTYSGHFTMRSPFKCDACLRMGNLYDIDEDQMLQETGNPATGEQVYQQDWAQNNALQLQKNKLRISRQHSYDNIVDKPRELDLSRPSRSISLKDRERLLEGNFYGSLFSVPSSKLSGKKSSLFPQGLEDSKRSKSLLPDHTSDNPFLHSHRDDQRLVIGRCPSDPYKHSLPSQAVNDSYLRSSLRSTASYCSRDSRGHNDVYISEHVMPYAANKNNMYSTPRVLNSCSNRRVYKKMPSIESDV
metric: Emax (%)

compound | value_reported
CC(C)(C)OC(=O)N1CCN(C(=O)OC(C)(C)C)C2(CNC2=O)C1 (single isomer, unassigned) | 0
C[C@@H](O)[C@H](N)C(=O)N1CCN(Cc2ccccc2)C2(CNC2=O)C1 (single isomer, unassigned) | 0
CN1CCN(C(=O)OC(C)(C)C)CC12CN(CC(N)=O)C2=O (stereo not drawn) | 0
O=C1NCCC12CNCCN2 (stereo not drawn) | 0
O=C1NCC12CNCCN2Cc1ccccc1 (single isomer, unassigned) | 0

* * *

Parameter: % F. Scope: all listed entries.
assay: Oral pharmacokinetics (plasma, brain, CSF); conditions: rat, per os, 10 mg/kg
Entry rule: numbers only, all in %.

Below, each entry is followed by its recorded % F result.
molecule | units_symbol | value_reported
CN1CCN(Cc2ccccc2)C2(CNC2=O)C1 (single isomer, unassigned) [EG-2] | % | 100
O=C1NCC12CNCCN2Cc1ccccc1 (single isomer, unassigned) [ED-2] | % | 54
CN1CCN(Cc2ccccc2)C2(CNC2=O)C1 (single isomer, unassigned) [EG-1] | % | 14

Now examine the next entry.
query: I would be grateful if you could share the reported % F for O=C1NCC12CNCCN2Cc1ccccc1 (single isomer, unassigned) [ED-1] .
result: 138
